This section presents molecules with their documented pIC50 values.
# Target: B*5301 (Homo sapiens, UniProt P01889, A329T/A93T/A95T/C349S/D201E/D98Y/E176V/E187L/E204Q/E69T/G107R/I218V/K202T/L105A/L119I/N104I/Q94N/R106L/R155S/R180L/S101N/S121R/S35A/S48A/T118I/V127L/V306I/V36M/Y140S/Y91F)
# Procedure text: biochemical
On this scale, pIC50 is minus log10 of a concentration expressed in M (mol/L).

For orientation, consider the following solved cases.
Value of pIC50 reported for the molecule CC[C@H](C)[C@H](NC(=O)[C@@H]1CCCN1C(=O)[C@@H]1CCCN1C(=O)[C@H](C)NC(=O)[C@H](C)NC(=O)[C@H](CCC(=O)O)NC(=O)[C@@H]1CCCN1C(=O)[C@H](CCSC)NC(=O)[C@H](CCCNC(=N)N)NC(=O)[C@@H]1CCCN1C(=O)[C@@H](N)Cc1ccccc1)C(=O)O [p53.63.F1111] is 5.26

Item: CC[C@H](C)[C@H](NC(=O)[C@@H](NC(=O)[C@@H](NC(=O)[C@@H](NC(=O)[C@@H](NC(=O)[C@H](CC(C)C)NC(=O)[C@@H](NC(=O)[C@@H]1CCCN1C(=O)[C@@H](N)Cc1ccccc1)[C@@H](C)CC)[C@@H](C)O)[C@@H](C)CC)[C@@H](C)CC)[C@@H](C)O)C(=O)O [p53.249.F119] | pIC50: 8.40

Now for another entry.
Short answer for CC[C@H](C)[C@H](NC(=O)[C@@H]1CCCN1C(=O)[C@H](Cc1c[nH]c2ccccc12)NC(=O)[C@H](CO)NC(=O)[C@@H]1CCCN1C(=O)[C@H](C)NC(=O)[C@@H]1CCCN1C(=O)[C@H](C)NC(=O)[C@@H]1CCCN1C(=O)[C@@H](N)Cc1ccccc1)C(=O)O [p53.84.F1110] : pIC50 was 7.38
